# System: hepatitis B virus (HBV)
# protocol_details: HBV-DNA replication in HepG2.2.15 culture supernatant (fluorescent quantification PCR)
# Format: cell-based
# test_context: Hepatitis B virus; HepG2.2.15 supernatant, eighth day, fluorescent quantification PCR; read-out: DNA replication IC50
# Protocol: Hepatitis B virus (HBV) transgenic human hepatoma carcinoma cell, HepG2.2.15 cell line, can secrete hepatitis B virus particles (containing antigen and DNA) into supernatant when being cultured. […] HepG2.2.15 cells were inoculated on a 96-well plate, and the compounds of the present invention were added next day. […] The culture supernatants were collected on the eighth day to be detected. […] OD570 was measured next day on microplate reader. […]
property_label: IC50 (µM)

>>> measured_number("CCOC(=O)c1nc(-c2nccs2)[nH]c1C1CCCCC1 [Compound C305-2]")
4.1
>>> measured_number("CCCCc1sc(-c2nccs2)nc1C(=O)OC [Wang282]")
19.4
>>> measured_number("CCOC(=O)c1nc(-c2cc3ccccc3s2)[nH]c1CC(C)C [Compound C328]")
0.19
>>> measured_number("CCOC(=O)c1nc(-c2cccs2)oc1C1CCCCC1 [Compound C305-1]")
2.6
>>> measured_number("CCOc1cnc(-c2oc(-c3cccs3)nc2C(=O)c2ccccc2)o1 [Compound C352]")
8.3
